test system: Euphorbia heterophylla (EPHHL); assay: Post-emergence efficacy, Method A; type: in vivo; settings: Euphorbia heterophylla, post-emergence, 312 h; Application rate 500 g/Ha; evaluated after 13 days; 100=total damage to plant, 0=no damage to plant; read-out: Control of weed species after post-emergence application, EPHHL
Below, each of the molecules is paired with its reported pest or weed control at 500 g/ha value.
A number alone suffices; assume %.

Below, 3 molecules whose answers are already recorded.
[
  {
    "COMPOUND_STRUCTURE": "O=S(=O)([O-])CC[n+]1ccc(-c2cnc(C(F)(F)F)cn2)cn1",
    "RESULT_UNIT": "%",
    "pest or weed control at 500 g/ha": 80
  },
  {
    "COMPOUND_STRUCTURE": "O=S(=O)([O-])CC[n+]1ccc(-c2ncc(C(F)(F)F)cn2)cn1",
    "RESULT_UNIT": "%",
    "pest or weed control at 500 g/ha": 80
  },
  {
    "COMPOUND_STRUCTURE": "Cc1n[n+](CCC(=O)O)ccc1-c1ccccn1",
    "RESULT_UNIT": "%",
    "pest or weed control at 500 g/ha": 10
  }
]

Field pest or weed control at 500 g/ha (entry COc1ccc(-c2cc[n+](CCCS(=O)(=O)[O-])nc2)nn1 ) reads 30

The reported value for O=S(=O)([O-])CC[n+]1ccc(-c2ncc(Cl)cc2Cl)cn1 in terms of pest or weed control at 500 g/ha is 60

Record summary for O=C([O-])CC[n+]1ccc(-c2ncccc2F)cn1 : reported pest or weed control at 500 g/ha = 80

Data point: O=C(O)CC[n+]1ccc(-c2cc(C(F)(F)F)ncn2)cn1 ; pest or weed control at 500 g/ha = 70

For this molecule ( O=S(=O)([O-])CCC[n+]1ccc(-c2ccnc(Cl)n2)cn1 ), measured pest or weed control at 500 g/ha is 80
